# TARGET OR TEST SYSTEM: c-kit autophosphorylation (Phospho c-Kit Tyr721) in HMC 1.1 (exon 11/13) cells, V654A (Homo sapiens, UniProt P10721, V560G/V654A)
# Construct: endogenous in cells
# Sequence (P10721 26-976 V560G/V654A): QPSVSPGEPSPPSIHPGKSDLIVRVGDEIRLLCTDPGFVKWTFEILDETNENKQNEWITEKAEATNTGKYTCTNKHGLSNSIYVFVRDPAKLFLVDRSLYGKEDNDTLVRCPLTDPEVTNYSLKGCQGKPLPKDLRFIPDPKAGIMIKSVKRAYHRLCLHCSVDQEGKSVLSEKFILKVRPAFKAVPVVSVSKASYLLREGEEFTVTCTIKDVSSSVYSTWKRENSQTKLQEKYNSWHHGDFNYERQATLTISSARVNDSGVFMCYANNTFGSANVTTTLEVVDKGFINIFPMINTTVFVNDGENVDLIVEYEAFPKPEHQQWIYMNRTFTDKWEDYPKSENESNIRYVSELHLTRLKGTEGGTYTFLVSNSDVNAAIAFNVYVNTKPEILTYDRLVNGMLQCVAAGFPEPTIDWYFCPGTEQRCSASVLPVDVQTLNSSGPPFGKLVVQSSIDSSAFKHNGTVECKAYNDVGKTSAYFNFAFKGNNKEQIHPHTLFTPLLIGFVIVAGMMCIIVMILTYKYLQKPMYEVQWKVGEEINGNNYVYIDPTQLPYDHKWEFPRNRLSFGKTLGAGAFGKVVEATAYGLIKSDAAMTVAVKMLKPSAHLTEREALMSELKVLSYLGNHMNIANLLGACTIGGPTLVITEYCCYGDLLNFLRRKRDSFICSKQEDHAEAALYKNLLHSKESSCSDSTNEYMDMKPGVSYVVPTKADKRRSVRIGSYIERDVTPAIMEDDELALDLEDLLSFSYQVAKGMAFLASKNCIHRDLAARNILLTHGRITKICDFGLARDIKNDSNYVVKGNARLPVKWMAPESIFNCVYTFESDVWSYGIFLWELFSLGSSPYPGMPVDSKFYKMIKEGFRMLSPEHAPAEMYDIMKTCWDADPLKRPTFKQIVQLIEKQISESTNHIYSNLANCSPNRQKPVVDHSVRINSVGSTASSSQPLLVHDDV
# TEST SUMMARY: pKIT Meso Scale Discovery (MSD) assay, inhibition of autophosphorylation of KIT, HMC1.1_V654A
# SETUP CONDITIONS: Table 1, cell line not named for Table 1, b1056 names pKIT HMC1.1_V654A, read-out: Code (IC50 for inhibition of autophosphorylation of KIT, pKIT MSD assay)
pIC50: −log10 of the molar value.
PROPERTY NAME: pIC50

Please review the following examples before continuing.
compound="CC(C)(O)Cn1cc(-c2cnc(Nc3cc(N)nc(C(F)F)n3)cc2OC(F)F)cn1 [Compound 181]" readout_value="> 8.00"
compound="CNC(=O)c1cnc(Nc2cc(N)nc(C(F)F)n2)cc1NCCC(C)C [Compound 66]" readout_value="7.40 to 8.00"
compound="CN1CC(n2cc(-c3cnc(Nc4cc(N)nc(C(F)F)n4)cc3OC3COC3)cn2)C1 [Compound 183]" readout_value="< 7.40"
compound="CNC(=O)c1cnc(Nc2cc(N)nc(CF)n2)cc1NC1CCC1 [Compound 14]" readout_value="> 8.00"
compound="CCCNC(=O)c1cnc(Nc2cc(N)nc(C(F)F)n2)cc1NC(C)C [Compound 67]" readout_value="> 8.00"

Go through the items and report each one's pIC50.
1. C[C@H](CF)Oc1cc(Nc2cc(N)nc(C(F)F)n2)ncc1-c1cnn(C)c1 (single isomer, unassigned) [Compound 88]
2. CN(C)CCn1cc(-c2cnc(Nc3cc(N)nc(C(F)F)n3)cc2OC2CC2)cn1 [Compound 171]
3. CNC(=O)c1cnc(Nc2cc(N)nc(CF)n2)cc1N[C@@H]1CCOC1 [Compound 35]

["> 8.00", "> 8.00", "< 7.40"]

Go through the items and report each one's pIC50.
1. COc1cc(Nc2cc(N)nc(C(F)F)n2)ncc1-c1cnn(CC(C)O)c1 (centres unmarked) [Compound 85]
2. CC(CF)Oc1cc(Nc2cc(N)nc(C(F)F)n2)ncc1-c1cnn(CC(C)(C)O)c1 (centres unmarked) [Compound 190]
3. Cn1cc(-c2cnc(Nc3cc(N)nc(C(F)F)n3)cc2OC2CCCOC2)cn1 (centres unmarked) [Compound 142]
4. COc1cc(Nc2cc(N)nc(C(F)F)n2)ncc1-c1cnn(C2CN(C)C2)c1 [Compound 103]
5. CC(C)(O)Cn1cc(-c2cnc(Nc3cc(N)nc(C(F)F)n3)cc2OC(F)(F)F)cn1 [Compound 198]
6. CN[C@@H](C)Cn1cc(-c2cnc(Nc3cc(N)nc(C(F)F)n3)cc2OC)cn1 (single isomer, unassigned) [Compound 117]
7. CNc1cc(Nc2cc(N)nc(C(F)F)n2)ncc1C(=O)NCC#N [Compound 22]

["7.40 to 8.00", "> 8.00", "> 8.00", "> 8.00", "> 8.00", "> 8.00", "< 7.40"]

----------
For each of the molecules below, state its IC50.
# TARGET OR TEST SYSTEM: c-kit autophosphorylation (Phospho c-Kit Tyr721) in HMC 1.1 (exon 11/13) cells, V654A (Homo sapiens, UniProt P10721, V560G/V654A)
# Construct: endogenous in cells
# TEST SUMMARY: pKIT Meso Scale Discovery (MSD) assay, inhibition of autophosphorylation of KIT, HMC1.1_V654A
# SETUP CONDITIONS: Table 1, cell line not named for Table 1, b1056 names pKIT HMC1.1_V654A, read-out: Code (IC50 for inhibition of autophosphorylation of KIT, pKIT MSD assay)
# Experimental: In this MSD assay, specific capture antibodies for the analytes were coated in arrays in each well of a 96-well carbon electrode plate surface. […] The MSD protocol was preformed as follows: Tris Wash Buffer (2L) was prepared by diluting 10× stock of Tris Wash Buffer to 1× in water. […] The Read Buffer was prepared by diluting 5 mL of 4× stock of Read Buffer to 1× in 15 mL water (per plate).

Please review the following examples before continuing.
molecule="COc1cc(Nc2cc(N)nc(C(F)F)n2)ncc1-c1cnn([C@H]2CCNC2)c1 (single isomer, unassigned)" readout_value="10 to 40 nM"
molecule=COc1cc(Nc2cc(N)nc(C(F)F)n2)ncc1-c1cnn(C(F)F)c1 readout_value="< 10 nM"
molecule=COCCn1cc(-c2cnc(Nc3cc(N)nc(C(F)F)n3)cc2OC2CC2)cn1 readout_value="< 10 nM"
molecule=CC(C)Nc1cc(Nc2cc(N)nc(C(F)F)n2)ncc1C(=O)NCc1ncco1 readout_value="< 10 nM"
molecule=CNC(=O)c1cnc(Nc2cc(N)nc(CF)n2)cc1NC1COC1 readout_value="> 40 nM"
molecule=CCOc1cc(Nc2cc(N)nc(C(F)F)n2)ncc1-c1cnn(CCN)c1 readout_value="10 to 40 nM"
molecule="COc1cc(Nc2cc(N)nc(C(F)F)n2)ncc1-c1cnn([C@@H]2CCOC2)c1 (single isomer, unassigned)" readout_value="< 10 nM"
molecule=CNC(=O)c1cnc(Nc2cc(N)nc(CF)n2)cc1NC(C)C readout_value="< 10 nM"
molecule="CNC(=O)c1cnc(Nc2cc(N)nc(CF)n2)cc1NC(C)CF (single isomer, unassigned) [Compound 28]" readout_value="> 40 nM"
molecule=COCCn1cc(-c2cnc(Nc3cc(N)nc(C(F)F)n3)cc2OC)cn1 readout_value="< 10 nM"

Go through the items and report each one's IC50.
1. Nc1cc(Nc2cc(OC(F)(F)F)c(-c3cnn(C4CC4)c3)cn2)nc(C(F)F)n1
2. CNCCn1cc(-c2cnc(Nc3cc(N)nc(C(F)F)n3)cc2OC2CC2)cn1
3. C[C@H](CF)Nc1cc(Nc2cc(N)nc(C(F)F)n2)ncc1C(=O)NC1CC1
4. Nc1cc(Nc2cc(OC(F)F)c(-c3cnn(CCN4CCC4)c3)cn2)nc(C(F)F)n1
5. C[C@@H](CF)Nc1cc(Nc2cc(N)nc(C(F)F)n2)ncc1C(=O)NC12CC(CO)(C1)C2

1: < 10 nM; 2: < 10 nM; 3: < 10 nM; 4: < 10 nM; 5: 10 to 40 nM

Values were extracted from patent US20250270190A1.
